Tested on: NCI/ADR-RES ovarian
Protocol description: NCI-60 one-dose screen, 48 h
Assay setup: 10 µM unless noted
This is part of a sample that, as a whole, favours compounds with a hit. Of some 83,000 tested, about 20% had one in any assay. The source made the active and inactive calls. The calls were made as follows: active = growth percent below 10; inactive = the rest.
Field 'call' accepts active, inactive

# input Recorded call for `COC(=O)CCc1cc(O)c2c(c1)[C@@H](C(=O)OC)[C@H](c1ccc(O)c(O)c1)O2` ?
# output inactive

# input Please do the same for `Clc1ccc2c(NCCCNC3CCCCC3)ccnc2c1` as well.
# output inactive

# input Please do the same for `COc1ccc2nc(-c3ccc(OC)c(OC)c3)cc(-c3nnc(SCC(=O)Nc4ccc(C(C)=O)cc4)o3)c2c1` as well.
# output inactive

# input Please do the same for CC(=O)OCC1SC(OC(C)=O)C(NC(=O)/C=C/CCl)C(OC(C)=O)C1OC(C)=O (centres undefined) as well.
# output inactive

# input Please do the same for `CCCCn1c(=O)c(/C=C/C(=O)/C=C/c2ccc(OC)cc2)cc2cc(Cl)ccc21` as well.
# output inactive

# input Please do the same for `COc1ccc(-n2cc(COc3ccc4c5ccnc(C)c5n(CC(C)C)c4c3)nn2)cc1` as well.
# output inactive

# input Please do the same for `Cc1cc(Cl)cc(CN(Cc2ccccc2)Cc2c(O)ccc3ccccc23)c1O` as well.
# output inactive

# input Please do the same for `Cc1ccc(C2=N[C@H]3CCC[C@@H]3N(c3ccccc3)C(C(Cl)Cl)=N2)cc1` as well.
# output inactive

# input Please do the same for `CCOC(=O)c1c(C(F)(F)F)n([O-])c2ccc(Cl)cc2[n+]1=O` as well.
# output active

###

Tested on: KM12 colon
Protocol description: NCI-60 one-dose screen, 48 h
Assay setup: 10 µM unless noted
Compounds without any hit were thinned out: in the full panel of roughly 83,000, 20% have a hit. Activity calls are given as the source filed them. The calls were made as follows: active = growth percent below 10; inactive = the rest.
Field 'call' accepts 1 (yes) = active, 0 (no) = inactive

Cn1c2ccccc2c2c(OC(=O)c3ccccc3)c3c(nc21)-c1ccccc1C3 = 0 (no)
CC(C)(C)c1nc2c(s1)c1nc(N)ncc1c1ccc(NS(=O)(=O)c3c(F)cccc3F)c(F)c12 = 0 (no)
CCN1CCN(c2ccc(NC(=O)Nc3nc4ccc(-c5ccccc5OC)cc4s3)cc2)CC1 = 1 (yes)
COc1cc(NCC(=O)Nc2cc(Nc3cccc(C(F)(F)F)c3)ncn2)c(Cl)c(OC)c1Cl = 0 (no)

# input Recorded call for `C=C1C(=O)O[C@H]2[C@H]1CC/C(COC(=O)c1cn(C)c3ccccc13)=C\CC[C@@]1(C)O[C@@H]21` ?
# output 0 (no)

# input Please do the same for `Cc1cc(C)c(NC(=O)c2sc3nc4c(cc3c2N)CCCCCC4)c(C)c1` as well.
# output 0 (no)

# input Please do the same for `CC(C)NS(=O)(=O)c1cccc(-c2ccc3c4c(n(CCCN(C)C)c(=O)c3c2)-c2ccccc2C4=O)c1` as well.
# output 0 (no)

# input Please do the same for `O=C(CN1N=C(c2ccc(F)cc2)CCC1=O)Nc1nccs1` as well.
# output 0 (no)

# input Please do the same for `CCCCn1c(=O)c(/C=C/C(=O)/C=C/c2cc3ccccc3n(CCCC)c2=O)cc2ccccc21` as well.
# output 1 (yes)

# input Please do the same for `Nc1cccc(C(=O)Nc2ccc3c(O)c(N=Nc4ccc(N=Nc5ccc(S(=O)(=O)O)cc5)cc4)c(S(=O)(=O)O)cc3c2)c1` as well.
# output 0 (no)

# input Please do the same for `O=C1[C@@H](OS(=O)(=O)CC(F)(F)F)[C@H](c2ccc(F)cn2)N1c1cc2c3ccccc3ccc2c2ccccc12` as well.
# output 0 (no)

# input Please do the same for `COC(=O)c1nc(-c2ccccc2)oc1S(=O)(=O)n1nc(C)cc1N` as well.
# output 0 (no)

# input Please do the same for `COc1cc(/C=C/CO)cc(OC)c1O[C@@H]1O[C@H](CO)[C@@H](O)[C@H](O)[C@H]1O` as well.
# output 0 (no)

# input Please do the same for `O=C1Nc2ccc(Cl)cc2/C1=N/c1nc(-c2ccc(Cl)cc2)cs1` as well.
# output 1 (yes)

# input Please do the same for `Cc1ccc(C(=O)O)o1` as well.
# output 0 (no)

# input Please do the same for `Nc1c(C(=O)Nc2ccccn2)sc2nc3c(cc12)CCCCCC3` as well.
# output 0 (no)

# input Please do the same for O=c1c2ccccc2n(CC(O)CN2CCCC2)c2c(Br)cccc12 (centres undefined) as well.
# output 0 (no)

# input Please do the same for `C=C1C(=O)O[C@H]2[C@H]1CC/C(COC(=O)CCCCCCCCC(=O)OC/C1=C/CC[C@@]3(C)O[C@H]3[C@H]3OC(=O)C(=C)[C@@H]3CC1)=C\CC[C@@]1(C)O[C@@H]21` as well.
# output 0 (no)

# input Please do the same for `O=C(CSC(=S)N1CCCCC1)Nc1ccccc1` as well.
# output 0 (no)

###

System: SN12C renal
Protocol description: NCI-60 one-dose screen, 48 h (100 = growth as untreated, 0 = no growth, -100 = all killed)
Assay setup: 10 µM unless noted
About 83,000 compounds went through this panel and 20% of them were active in at least one assay; those are over-represented in the sample as a whole.
Quantity kind: growth (%)
The reply should contain only the number, in %.

CCCCc1ccc(N=Nc2ccc(OCC[N+](C)(C)C)cc2)cc1 = 31
COc1ccc(-c2nnc(N3CCN(C(=O)CN4CCN(c5ccccc5)CC4)CC3)nc2-c2ccc(OC)cc2)cc1 = 7.79
O=C1NC(SCc2ccc(F)cc2)=N/C1=C/c1cccc(OCc2ccc(Cl)cc2)c1 = 22.1
Cc1cccc(C)c1NCc1nnc(-c2ccco2)o1 = 94.8

# input Which growth is reported for this molecule? COc1cc(C2=NNC(c3ccc(N(C)C)cc3)C2)cc(OC)c1OC (stereo not given)
# output 49.3

###

Tested on: SW-620 colon
Protocol description: NCI-60 one-dose screen, 48 h
Assay setup: 10 µM unless noted
Experimental: Growth inhibition of the SW-620 human tumor cell line is measured as a screen for anti-cancer activity. Cells are grown in 96 well plates and exposed to the test compound for 48 hours. Compounds are tested at a single concentration, which is 10^-5 M for most compounds. The reported endpoint is percent growth (GI% or GIPRCNT), where numbers from 0 - 100% represent growth inhibition, and numbers from -100% - 0 represent cell death. For example, a value of 40 represents 60% growth inhibition. […]
The panel holds about 83,000 compounds, 20% with a hit somewhere; the sample as a whole holds those more often. Activity calls are given as the source filed them. The calls were made as follows: active = growth percent below 10; inactive = the rest.
Field 'call' accepts y for active, n for inactive

N#Cc1c(-c2ccc(F)cc2)nc(N/N=C/c2cccc(O)c2)nc1N1CCOCC1 = n
O=C(CCc1nnco1)c1nc2ccc([N+](=O)[O-])cc2[nH]1 = n

# input Recorded call for `Cc1c(C(=O)Nc2nc3ccccc3[nH]2)cnn1-c1ccccn1` ?
# output n

# input Please do the same for `CN(C)CSc1nc2ccccc2s1` as well.
# output n

# input Please do the same for `COc1cccc(NC(=O)Nc2ccc(Oc3ncnc4[nH]c(C)c(C)c34)cc2)c1` as well.
# output n

###

Test system: CCRF-CEM leukemia
Protocol description: NCI-60 one-dose screen, 48 h
Assay setup: 10 µM unless noted
Compounds without any hit were thinned out: in the full panel of roughly 83,000, 20% have a hit. The source made the active and inactive calls. How the source made its calls: active means growth percent below 10; inactive means the rest.
Field 'call' accepts TRUE for active, FALSE for inactive

The examples below pair each entry with its known result.
CC(=O)OC[C@]12CC[C@@H](c3cn(Cc4ccc(Cn5cc([C@@H]6CC[C@]7(COC(C)=O)CC[C@]8(C)[C@H](CC[C@@H]9[C@@]%10(C)CC[C@H](OC(C)=O)C(C)(C)[C@@H]%10CC[C@]98C)[C@@H]67)nn5)cc4)nn3)[C@@H]1[C@H]1CC[C@@H]3[C@@]4(C)CC[C@H](OC(C)=O)C(C)(C)[C@@H]4CC[C@@]3(C)[C@]1(C)CC2 = FALSE
Cc1ccn2c3c(c(C(=O)O)c2c1)C(=O)c1ccccc1C3=O = FALSE
Cc1nc2sc(C(=O)Nc3cccc(Cl)c3C)c(N)c2cc1C(C)O (stereo not drawn) = FALSE
Cc1c(Cl)cccc1NC(=O)c1sc2nc3c(cc2c1N)CN(Cc1ccccc1)CC3 = FALSE
COc1ccc(/C=C(/C(=O)N2CCCC2)c2cc(OC)c(OC)c(OC)c2)cc1 = FALSE
O=C(Nc1nc(-c2ccccc2Cl)cs1)c1cc(-c2ccc(Br)cc2)nc2ccccc12 = FALSE
C#Cc1ccccc1NC(=O)c1sc2nc3c(cc2c1N)CCCCCC3 = FALSE
CCOC(=O)NC(Cc1ccccc1)c1ccccc1 (stereo not drawn) = FALSE

# input Recorded call for `COCCOC(=O)COc1ccc(OC)cc1` ?
# output FALSE

# input Please do the same for `Nc1cc(N)nc(SCC(=O)O)n1` as well.
# output FALSE
